# method notes: Hygroscopicity by dynamic vapor sorption (DVS) at 25° C.
# Assay type: physicochemical
# experimental setup: DVS 25° C., 30% RH, 1st desorption
observable: Desorp. (%)
Answers are plain numbers, in %.

CCOc1cc(C(=O)N(C)Cc2cnc(CO)c3cn[nH]c23)ccc1-c1cc(F)cc(F)c1 [Free form Pattern A]; 3.79
CCOc1cc(C(=O)N(C)Cc2cnc(CO)c3cn[nH]c23)ccc1-c1cc(F)cc(F)c1.O=P(O)(O)O [Phosphate salt Pattern A]; 0.20
CCOc1cc(C(=O)N(C)Cc2cnc(CO)c3cn[nH]c23)ccc1-c1cc(F)cc(F)c1.[Na] [Sodium salt Pattern A]; 0.35

Note: attention shifts to another entry.
-- ask // lookup Desorp. (%) for CCOc1cc(C(=O)N(C)Cc2cnc(CO)c3cn[nH]c23)ccc1-c1cc(F)cc(F)c1.Cl [HCl salt Pattern A]
-- reply 0.69

* * *

# method notes: Solubility at 37° C. in buffers and biorelevant media, XRPD of residual solid
# Type: physicochemical
# experimental setup: thermodynamic from solid; FaSSIF-v1, pH 6.5, 37° C., 24 h
# Experimental: Solubility of BAL-0748 free form Pattern B was investigated in pH 1.2 HCl buffer, pH 4.5 50 mM acetate buffer, pH 6.8 50 mM phosphate buffer, water, pH 1.6 FaSSGF, pH 6.5 FaSSIF-v1, pH 5.0 FeSSIF-v1 and 2% HPMC+1% Pluronic F68 in pH 4.5 50 mM acetate buffer at 37° C. for 2 h and 24 h. Residual solids after the solubility test were analyzed by XRPD. […]
I'd be grateful if you could share measured solubility at 24 h for these entries.
Give bare numbers, in µg/mL.

Please review the entries below; each comes with its answer.
CCOc1cc(C(=O)N(C)Cc2cnc(CO)c3cn[nH]c23)ccc1-c1cc(F)cc(F)c1.[Na] [Sodium salt Pattern A]; 13.1
CCOc1cc(C(=O)N(C)Cc2cnc(CO)c3cn[nH]c23)ccc1-c1cc(F)cc(F)c1 [Free form Pattern A]; 17.7
CCOc1cc(C(=O)N(C)Cc2cnc(CO)c3cn[nH]c23)ccc1-c1cc(F)cc(F)c1.Cl [HCl salt Pattern A]; 8.4

-- ask Query (molecule): CCOc1cc(C(=O)N(C)Cc2cnc(CO)c3cn[nH]c23)ccc1-c1cc(F)cc(F)c1.O=P(O)(O)O [Phosphate salt Pattern A] ; field requested: solubility at 24 h
-- reply 13.7

* * *

# method notes: Bulk stability (solid state, 1 week; HPLC, XRPD, IC, color)
# Assay type: physicochemical
# Design: key: A: no change of color; B: slight discoloration; C: medium discoloration; D: strong discoloration
# experimental setup: Solid state, 60° C., closed
observable: CL (color)

CCOc1cc(C(=O)N(C)Cc2cnc(CO)c3cn[nH]c23)ccc1-c1cc(F)cc(F)c1.O=P(O)(O)O [Phosphate salt Pattern A]; A
CCOc1cc(C(=O)N(C)Cc2cnc(CO)c3cn[nH]c23)ccc1-c1cc(F)cc(F)c1 [Free form Pattern A]; A
CCOc1cc(C(=O)N(C)Cc2cnc(CO)c3cn[nH]c23)ccc1-c1cc(F)cc(F)c1.[Na] [Sodium salt Pattern A]; A
CCOc1cc(C(=O)N(C)Cc2cnc(CO)c3cn[nH]c23)ccc1-c1cc(F)cc(F)c1.Cl [HCl salt Pattern A]; A
